# Target desc: T1, huMICA*002 alpha 3-his (human)
# T1 construct: whole construct entry: GS, alpha 3 domain, GNS, His8; also called MICA002.His; MICA*002 alpha3 construct
# T1 chain: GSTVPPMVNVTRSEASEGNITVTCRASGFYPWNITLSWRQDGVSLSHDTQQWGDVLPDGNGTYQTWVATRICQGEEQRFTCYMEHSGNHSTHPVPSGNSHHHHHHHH
# Test protocol: SPR, Biacore 8K, antibody on Protein A chip
Measurement type: pKd
Scale note: pKd = -log10(concentration in M).

Prompt: Give recorded pKd. 15F11v1 (antibody, IgG1, V domains shown, humanized variant of 15F11) VH: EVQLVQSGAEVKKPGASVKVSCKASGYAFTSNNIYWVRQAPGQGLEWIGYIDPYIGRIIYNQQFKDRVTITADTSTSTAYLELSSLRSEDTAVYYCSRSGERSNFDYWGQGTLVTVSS VL: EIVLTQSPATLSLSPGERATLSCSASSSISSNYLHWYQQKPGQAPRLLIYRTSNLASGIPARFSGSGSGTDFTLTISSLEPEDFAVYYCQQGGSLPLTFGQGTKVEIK
Completion: 7.89

Prompt: Give recorded pKd. 1D5v25 (antibody, IgG1, V domains shown, humanized variant of 1D5) VH: EVQLVQSGAEVKKPGASVKVSCKASGYAFTSQNIYWVRQAPGQGLEWIGYIEPYNVVPMYNPKFKGRVTITVDTSTSTAYLELSSLRSEDTAVYYCARSGSSNFDYWGQGTLVTVSS VL: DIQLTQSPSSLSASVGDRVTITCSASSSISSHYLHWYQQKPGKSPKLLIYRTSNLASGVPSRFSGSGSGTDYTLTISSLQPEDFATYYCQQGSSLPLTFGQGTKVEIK
Completion: 8.91
